I'd be grateful if you could share measured ED50, Subcutaneous for these entries.
test system: Streptococcus pyogenes C203; test: In vivo protection of mice experimentally infected with S. pyogenes C203; details: mice; subcutaneous; doses given 1 and 4 hours post-infection

These solved cases illustrate the format of a correct answer.
CCC1OC(=O)CC(O)C(C)C(OC2OC(C)C(O)C(N(C)C)C2OC(C)=O)C(CCOc2ccccc2)CC(C)C(=O)C=CC(C)=CC1COC1OC(C)C(O)C(OC)C1OC (stereo not shown)    1.0 mg/kg × 2
CCC1OC(=O)CC(O)C(C)C(OC2OC(C)C(O)C(N(C)C)C2O)C(CCOc2nnc(-c3ccccc3)c(-c3ccccc3)n2)CC(C)C(=O)C=CC(C)=CC1COC1OC(C)C(O)C(OC)C1OC (stereo not shown)    > 10 mg/kg × 2
CCC1OC(=O)CC(O)C(C)C(OC2OC(C)C(O)C(N(C)C)C2O)C(CCOc2ccc(-c3ccccc3)cc2)CC(C)C(=O)C=CC(C)=CC1COC1OC(C)C(O)C(OC)C1OC (stereo not shown)    > 10 mg/kg × 2

Provide Streptococcus pyogenes C203 ED50, Subcutaneous reading for CCC(=O)OC1C(OC2C(CCCl)CC(C)C(=O)C=CC(C)=CC(COC3OC(C)C(O)C(OC)C3OC)C(CC)OC(=O)CC(O)C2C)OC(C)C(OC2CC(C)(O)C(O)C(C)O2)C1N(C)C (stereo not shown) . > 6.3 mg/kg × 2

====

system: Haemophilus influenzae R252; assay: MIC, standard agar-dilution assay, Haemophilus influenzae R252; assay type: cell-based; details: Haemophilus influenzae R252; ampicillin-resistant strain; agar dilution
readoutType: MIC (µg/mL)
Numbers only, in µg/mL.

These solved cases illustrate the format of a correct answer.
CCC1OC(=O)CC(O)C(C)C(OC2OC(C)C(O)C(N(C)C)C2O)C(CCOc2nnc(-c3ccccc3)c(-c3ccccc3)n2)CC(C)C(=O)C=CC(C)=CC1COC1OC(C)C(O)C(OC)C1OC (centres unmarked)    64
CCC1OC(=O)CC(O)C(C)C(OC2OC(C)C(O)C(N(C)C)C2O)C(CCOc2cc(Cl)cc(Cl)c2)CC(C)C(=O)C=CC(C)=CC1COC1OC(C)C(O)C(OC)C1OC (centres unmarked)    16
CCC(=O)OC1C(OC2C(CCN3C(=O)c4ccccc4C3=O)CC(C)C(=O)C=CC(C)=CC(COC3OC(C)C(O)C(OC)C3OC)C(CC)OC(=O)CC(O)C2C)OC(C)C(O)C1N(C)C (centres unmarked)    32

Provide Haemophilus influenzae R252 MIC reading for CCC1OC(=O)CC(O)C(C)C(OC2OC(C)C(O)C(N(C)C)C2O)C(CCOc2ccc(-c3ccccc3)cc2)CC(C)C(=O)C=CC(C)=CC1COC1OC(C)C(O)C(OC)C1OC (centres unmarked) . 16

====

test system: Streptococcus Group 9960; assay: MIC, standard agar-dilution assay, Streptococcus Group 9960; format: cell-based; settings: Streptococcus Group 9960; agar dilution
I'd be grateful if you could share measured MIC for these entries.
Numbers only, in mg/L.

These solved cases illustrate the format of a correct answer.
CCC1OC(=O)CC(O)C(C)C(OC2OC(C)C(O)C(N(C)C)C2O)C(CCN2C(=O)c3ccccc3C2=O)CC(C)C(=O)C=CC(C)=CC1COC1OC(C)C(O)C(OC)C1OC (stereo not drawn)    4
CC[C@H]1OC(=O)C[C@@H](O)[C@H](C)[C@@H](O[C@@H]2O[C@H](C)[C@H](O)[C@H](N(C)C)[C@H]2O)[C@@H](CCOc2ccccc2)C[C@@H](C)C(=O)/C=C/C(C)=C/[C@@H]1COC1O[C@H](C)[C@@H](O)[C@@H](OC)[C@H]1OC (stereo partly drawn)    16
CCC1OC(=O)CC(O)C(C)C(OC2OC(C)C(OC(C)=O)C(N(C)C)C2OC(C)=O)C(CCOc2ccccc2)CC(C)C(=O)C=CC(C)=CC1COC1OC(C)C(O)C(OC)C1OC (stereo not drawn)    8
CCC1OC(=O)CC(O)C(C)C(OC2OC(C)C(O)C(N(C)C)C2O)C(CCOc2ccc(CO)cc2)CC(C)C(=O)C=CC(C)=CC1COC1OC(C)C(O)C(OC)C1OC (stereo not drawn) [Compound 51a]    16
CCC1OC(=O)CC(O)C(C)C(OC2OC(C)C(O)C(N(C)C)C2O)C(CCOc2ccc(-c3ccccc3)cc2)CC(C)C(=O)C=CC(C)=CC1COC1OC(C)C(O)C(OC)C1OC (stereo not drawn)    0.5

Look at each compound and report its MIC.
1. CCC(=O)OC1C(OC2C(CCN3C(=O)c4ccccc4C3=O)CC(C)C(=O)C=CC(C)=CC(COC3OC(C)C(O)C(OC)C3OC)C(CC)OC(=O)CC(O)C2C)OC(C)C(O)C1N(C)C (stereo not drawn)
2. CCC1OC(=O)CC(O)C(C)C(OC2OC(C)C(O)C(N(C)C)C2O)C(CCOc2ccc(CN3CCCCCC3)cc2)CC(C)C(=O)C=CC(C)=CC1COC1OC(C)C(O)C(OC)C1OC (stereo not drawn)

[8, 8]
